target: GST-USP7 (human, UniProt Q93009-1 1-1102); test: pull-down
Sequence (Q93009 whole entry): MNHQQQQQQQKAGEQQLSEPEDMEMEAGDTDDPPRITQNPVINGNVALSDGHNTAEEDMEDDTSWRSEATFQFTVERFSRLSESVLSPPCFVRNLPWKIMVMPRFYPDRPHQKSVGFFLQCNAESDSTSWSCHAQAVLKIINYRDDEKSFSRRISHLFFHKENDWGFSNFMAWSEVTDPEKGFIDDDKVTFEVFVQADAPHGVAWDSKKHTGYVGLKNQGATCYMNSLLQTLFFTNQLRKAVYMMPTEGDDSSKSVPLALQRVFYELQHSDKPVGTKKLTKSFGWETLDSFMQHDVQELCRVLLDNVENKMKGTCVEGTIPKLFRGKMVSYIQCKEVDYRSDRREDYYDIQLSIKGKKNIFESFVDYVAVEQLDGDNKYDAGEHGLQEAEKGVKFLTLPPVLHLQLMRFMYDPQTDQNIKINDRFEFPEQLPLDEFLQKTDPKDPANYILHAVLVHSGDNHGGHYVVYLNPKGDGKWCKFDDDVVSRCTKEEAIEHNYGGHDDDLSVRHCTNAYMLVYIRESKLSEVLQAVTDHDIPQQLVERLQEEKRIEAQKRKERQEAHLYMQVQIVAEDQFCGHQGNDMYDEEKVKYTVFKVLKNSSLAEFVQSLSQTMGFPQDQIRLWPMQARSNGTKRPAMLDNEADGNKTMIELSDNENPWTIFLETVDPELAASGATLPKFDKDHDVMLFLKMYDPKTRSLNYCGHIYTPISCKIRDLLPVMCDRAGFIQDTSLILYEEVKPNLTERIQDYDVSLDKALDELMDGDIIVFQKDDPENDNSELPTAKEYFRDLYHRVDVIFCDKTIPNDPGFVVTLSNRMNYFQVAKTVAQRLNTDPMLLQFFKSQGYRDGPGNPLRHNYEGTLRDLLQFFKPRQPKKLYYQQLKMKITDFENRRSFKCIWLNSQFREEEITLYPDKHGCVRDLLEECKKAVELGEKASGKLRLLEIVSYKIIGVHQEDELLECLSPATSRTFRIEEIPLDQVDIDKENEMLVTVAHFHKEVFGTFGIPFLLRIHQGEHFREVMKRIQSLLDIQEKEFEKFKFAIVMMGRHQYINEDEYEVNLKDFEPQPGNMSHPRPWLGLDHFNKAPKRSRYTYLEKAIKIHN
result type: binding result

binder="FlagHis12-tagged mouse Bmi1 (natural protein) MHRTTRIKITELNPHLMCVLCGGYFIDATTIIECLHSFCKTCIVRYLETSKYCPICDVQVHKTRPLLNIRSDKTLQDIVYKLVPGLFKNEMKRRRDFYAAHPSADAANGSNEDRGEVADEEKRIITDDEIISLSIEFFDQSRLDRKVNKEKPKEEVNDKRYLRCPAAMTVMHLRKFLRSKMDIPNTFQIDVMYEEEPLKDYYTLMDIAYIYTWRRNGPLPLKYRVRPTCKRMKMSHQRDGLTNAGELESDSGSDKANSPAGGVPSTSSCLPSPSTPVQSPHPQFPHISSTMNGTSNSPSANHQSSFASRPRKSSLNGSSATSSG" result_type="binding result" data_value=binds
binder="FlagHis12-tagged mouse Ring1b (natural protein) MSQAVQTNGTQPLSKTWELSLYELQRTPQEAITDGLEIVVSPRSLHSELMCPICLDMLKNTMTTKECLHRFCADCIITALRSGNKECPTCRKKLVSKRSLRPDPNFDALISKIYPSRDEYEAHQERVLARINKHNNQQALSHSIEEGLKIQAMNRLQRGKKQQIENGSGAEDNGDSSHCSNASTHSNQEAGPSNKRTKTSDDSGLELDNNNAAVAIDPVMDGASEIELVFRPHPTLMEKDDSAQTRYIKTSGNATVDHLSKYLAVRLALEELRSKGESNQMNLDTASEKQYTIYIATASGQFTVLNGSFSLELVSEKYWKVNKPMELYYAPTKEHK" result_type="binding result" data_value=binds
binder="CBX8-Flag purified from bacteria (natural protein) MELSAVGERVFAAEALLKRRIRKGRMEYLVKWKGWSQKYSTWEPEENILDARLLAAFEEREREMELYGPKKRGPKPKTFLLKAQAKAKAKTYEFRSDSARGIRIPYPGRSPQDLASTSRAREGLRNMGLSPPASSTSTSSTCRAEAPRDRDRDRDRDRERDRERERERERERERERERERGTSRVDDKPSSPGDSSKKRGPKPRKELPDPSQRPLGEPSAGLGEYLKGRKLDDTPSGAGKFPAGHSVIQLARRQDSDLVQCGVTSPSSAEATGKLAVDTFPARVIKHRAAFLEAKGQGALDPNGTRVRHGSGPPSSGGGLYRDMGAQGGRPSLIARIPVARILGDPEEESWSPSLTNLEKVVVTDVTSNFLTVTIKESNTDQGFFKEKR" result_type="binding result" data_value=binds
